# System: 485368-065-R4-J2-PDC spheroids with HUVEC/MSC, viability;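 note: spheroids exposed to compounds for seven days; 100% = DMSO vehicle control wells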
# RUN_DESCRIPTION: Anticancer human tumor 485368-065-R4-J2-PDC patient-derived pancreatic carcinoma cell line growth inhibition [CLK]
# RECORDED_CONDITIONS: second compound 0.1 µM; first compound 10 µM; active compounds read low
# Description: A high-throughput screen of multi-cell type tumor spheroids was designed to identify active combinations of […] and targeted small molecules. Complex spheroids include a stromal component modeled by human endothelial cells (HUVEC) and fibroblasts modeled by human mesenchymal stem cells (MSCs). […] Compounds. […] If the clinical Cmax for an agent had not been determined, the highest concentration tested was 10 microM. […]
REPORTED_ENDPOINT: viability, T/C (%)
Give just the number in %; leave the unit off.

Tested on 485368-065-R4-J2-PDC spheroids with HUVEC/MSC, viability: Nc1ccn(C2OC(CO)C(O)C2(F)F)c(=O)n1 (stereo not given) + CN1CCN(c2cc(C(=O)Nc3cc4cc(-c5cnn(C)c5)ccc4cn3)ccn2)CC1 . Observed viability, T/C: 13.8

Tested on 485368-065-R4-J2-PDC spheroids with HUVEC/MSC, viability: Nc1ccccc1NC(=O)c1ccc(CNC(=O)OCc2cccnc2)cc1 + CNC(=O)c1ccc(Nc2nc(OC3CCCC3)c3c(-c4ccc5nc(C)oc5c4)c[nH]c3n2)c(OC)c1 . Observed viability, T/C: 31.9

Tested on 485368-065-R4-J2-PDC spheroids with HUVEC/MSC, viability: CC(=O)O[C@H]1C(=O)[C@@]2(C)[C@H]([C@H](OC(=O)c3ccccc3)[C@]3(O)C[C@H](OC(=O)[C@H](O)[C@@H](NC(=O)c4ccccc4)c4ccccc4)C(C)=C1C3(C)C)[C@]1(OC(C)=O)CO[C@@H]1C[C@@H]2O + CN1CCN(c2cc(C(=O)Nc3cc4cc(-c5cnn(C)c5)ccc4cn3)ccn2)CC1 . Observed viability, T/C: 45.2

Tested on 485368-065-R4-J2-PDC spheroids with HUVEC/MSC, viability: COc1cccc2c1C(=O)c1c(O)c3c(c(O)c1C2=O)CC(O)(C(=O)CO)CC3OC1CC(N)C(O)C(C)O1 (stereo not given) + CNC(=O)c1ccc(Nc2nc(OC3CCCC3)c3c(-c4ccc5nc(C)oc5c4)c[nH]c3n2)c(OC)c1 . Observed viability, T/C: 22.3

Tested on 485368-065-R4-J2-PDC spheroids with HUVEC/MSC, viability: Nc1ccn(C2OC(CO)C(O)C2(F)F)c(=O)n1 (stereo not given) + CNC(=O)c1ccc(Nc2nc(OC3CCCC3)c3c(-c4ccc5nc(C)oc5c4)c[nH]c3n2)c(OC)c1 . Observed viability, T/C: 26.6

These data points were gathered from PubChem BioAssay AID2060617.
